- measurement_notes: p53 small molecule agonists, cell-based qHTS assay with human liver microsomes: qHTS cell viability counter screen (AID 1963579); further: nearly all actives have a fitted effect of over 45% in size
- conditions: p53RE-bla HCT-116 viability, ATP luminescence, 16 h, HLM; series mostly up to 66 µM
Records with an inconclusive call do not appear. The source made the active and inactive calls. The call rests on the fitted dose curve.
Classes used: yes (active), no (inactive)

1. CC/C=C\CCCCCCCCCCOC(C)=O ... no
2. C=C(C)C(=O)OCCO ... no
3. C=CCOCC(O)CS(=O)(=O)O (centres undefined) ... no
4. COC(=O)/C=C/C(C)=C\C=C\C(C)=C\C=C\C=C(C)\C=C\C=C(C)\C=C\C(=O)O ... no
5. CCCOc1ccc(S(=O)(=O)N2CCN(CC)CC2)cc1-c1nc2c(CC)n(Cc3ccccn3)nc2c(=O)[nH]1 ... no
6. Cc1ccc(O)c([C@H](CCN(C(C)C)C(C)C)c2ccccc2)c1 ... no
7. Cc1c[nH]c(=O)[nH]c1=O ... no
8. CC(C)(C)c1ccc(OCC2CO2)cc1 (centres undefined) ... no
9. CC(=O)c1ccc(OCC(=O)N2CCCCC2)cc1 ... no
10. CCOc1cccc(-n2cc(C(=O)N3CCN(c4cc(C(=O)O)c5ccccc5c4)CC3)nc2-c2ccc(C)cc2)c1 ... yes
11. Cc1c(C(=O)O)c(O)cc2c1C(=O)c1c(O)c([C@@H]3O[C@H](CO)[C@@H](O)[C@H](O)[C@H]3O)c(O)c(O)c1C2=O ... no
12. C=CC(=O)Nc1cc2c(Nc3ccc(F)c(Cl)c3)ncnc2cc1OCCCN1CCOCC1 ... no
13. O=C1c2ccccc2Cc2ccccc21 ... no
14. CCCCCCCCCCC1CO1 (centres undefined) ... no
15. FB(F)F ... no
16. O=C(Nc1ccc(S(=O)(=O)N2CCOCC2)cc1)c1cc(Cl)ccc1NS(=O)(=O)c1ccc(Cl)s1 ... no
17. C[C@H]1[C@H](NC(=O)/C(=N/OC(C)(C)C(=O)O)c2csc(N)n2)C(=O)N1S(=O)(=O)O (stereo in doubt) ... no
18. C=Cc1ccc(C(C)(C)C)cc1 ... no
19. CCCN(CCc1cccs1)[C@H]1CCc2c(O)cccc2C1 ... no
20. CC(C)CCC(=O)CCC(C)C ... no
21. O=C(O)c1c2ccccc2cc2ccccc12 ... no
22. O=C(O)CCCl ... no
23. CC(Oc1c(Cl)cccc1Cl)C1=NCCN1 (centres undefined) ... no
24. CC(C)(C)CC(C)(C)c1ccc(O)c(Cc2ccc(Cl)cc2Cl)c1 ... no

----------
Each record here notes measured activity change, negative = inhibition.
- system_tested: D(2) dopamine receptor (Homo sapiens)
- measurement_notes: Dopamine D2 receptor (DRD2) small molecule antagonists, cell-based qHTS assay (AID 1963595); further: on the % scale 0 is the no-effect control and ±100 the full control effect
- conditions: HEK293-DRD2 cAMP HTRF antagonist mode; series mostly up to 92.4 µM
Inconclusive results are not listed. Active and inactive are the calls of the source. The call rests on the fitted dose curve; in most records, active means well fitted inhibition curve with a large enough effect in the signal ratio in the repeat runs, with a control signal flat; inconclusive means weak or mixed curves, or effect the other way; inactive means flat fitted curve, though single readings scatter; the % refers to the signal ratio.
recorded_metric: activity change, negative = inhibition

1) CC1CN(c2cc3c(cc2F)c(=O)c(C(=O)O)cn3-c2ccc(F)cc2F)CCN1 (stereo unspecified) ... -0.708% [at 8.38 µM] (inactive)
2) CCCCCCCCCCCCCCCCCCCl ... 3.22% [at 8.38 µM] (inactive)
3) Cc1cc(=O)c2c(O)c3c(O)cc(=O)c4c3c3c(cc(O)c1c23)C(C)(C)C=4O ... 5.59% [at 18.9 µM] (inactive)
4) Cn1ccc2cc3c(cc21)CCN3C(=O)Nc1cccnc1 ... -0.697% [at 18.9 µM] (inactive)
5) N[C@@H](C(=O)N[C@@H]1C(=O)N2C(C(=O)O)=C(Cl)CS[C@H]12)c1ccccc1 ... 6.7% [at 8.38 µM] (inactive)
6) C[C@@H]1CN(c2c(F)c(F)c3c(=O)c(C(=O)O)cn(C4CC4)c3c2F)C[C@H](C)N1 ... -0.82% [at 18.9 µM] (inactive)
7) C=CCCCCCCCCCCCCCC ... -4.22% [at 18.9 µM] (inactive)
8) CCCCCCCCCCCCCCCCN(C)C ... -3.89% [at 8.38 µM] (inactive)
9) COC=O ... -12.2% [at 8.38 µM] (inactive)
10) NC(N)=NCCC[C@H](N)C(=O)O ... 5.33% [at 8.38 µM] (inactive)
11) Nc1ccc2c(c1)CN1C(=O)c3ccccc3C1=N2 ... -0.331% [at 18.9 µM] (inactive)

The measured values listed here are drawn from PubChem BioAssay (Tox21).
